target: human ether-à-go-go-related gene (hERG) potassium channel (human, UniProt Q12809); assay: primary screen, population patch clamp on CHO cells stably expressing hERG; higher = less effect of the substance;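 further: peak tail current of the secondary pulse compared with the same well before compound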
Sequence (Q12809 whole entry, looked up): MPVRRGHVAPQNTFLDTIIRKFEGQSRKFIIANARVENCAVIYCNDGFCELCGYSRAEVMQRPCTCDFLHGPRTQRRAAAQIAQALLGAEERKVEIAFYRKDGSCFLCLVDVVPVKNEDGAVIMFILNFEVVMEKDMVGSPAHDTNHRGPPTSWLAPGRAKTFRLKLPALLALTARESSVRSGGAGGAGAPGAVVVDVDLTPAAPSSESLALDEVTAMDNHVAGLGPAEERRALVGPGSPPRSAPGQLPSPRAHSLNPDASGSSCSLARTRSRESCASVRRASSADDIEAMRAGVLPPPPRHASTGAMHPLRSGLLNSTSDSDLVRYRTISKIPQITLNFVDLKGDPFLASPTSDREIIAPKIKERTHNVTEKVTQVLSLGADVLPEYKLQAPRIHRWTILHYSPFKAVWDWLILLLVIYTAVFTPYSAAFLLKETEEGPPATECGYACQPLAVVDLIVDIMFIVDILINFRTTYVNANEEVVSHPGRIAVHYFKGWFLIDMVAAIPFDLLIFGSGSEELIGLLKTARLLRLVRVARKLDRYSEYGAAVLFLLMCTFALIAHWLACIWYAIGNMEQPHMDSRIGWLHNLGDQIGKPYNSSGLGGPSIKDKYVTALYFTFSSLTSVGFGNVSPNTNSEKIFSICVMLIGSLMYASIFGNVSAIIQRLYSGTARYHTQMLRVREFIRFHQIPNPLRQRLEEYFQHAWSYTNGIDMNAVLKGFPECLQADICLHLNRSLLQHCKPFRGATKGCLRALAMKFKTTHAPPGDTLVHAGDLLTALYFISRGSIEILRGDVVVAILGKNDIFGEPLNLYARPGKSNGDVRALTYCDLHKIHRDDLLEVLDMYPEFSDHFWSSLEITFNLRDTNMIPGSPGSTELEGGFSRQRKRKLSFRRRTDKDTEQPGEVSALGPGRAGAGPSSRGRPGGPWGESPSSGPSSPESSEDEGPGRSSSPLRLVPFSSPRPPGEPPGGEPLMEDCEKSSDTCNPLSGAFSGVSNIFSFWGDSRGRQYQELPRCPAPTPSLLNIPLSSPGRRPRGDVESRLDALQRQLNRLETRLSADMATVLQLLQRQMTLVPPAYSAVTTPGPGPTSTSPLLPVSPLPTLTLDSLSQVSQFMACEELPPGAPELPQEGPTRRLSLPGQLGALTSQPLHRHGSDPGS
Out of some 310,000 compounds screened, about 14,000 (4.5%) showed an effect of 50% or more. The effect is printed as a negative number. Only a selection was taken, and strong results are over-represented in it overall.
measure_name: hERG current change (%, negative = inhibition) at 10uM (%)
All answers are understood in %, so give the number only.

## Task I'd like to know its hERG current change (%, negative = inhibition) at 10uM. The compound in question is COc1ccc(NC(=O)C2Cc3ccccc3O/C2=N\O)cc1 (centres unmarked)
## Result 13.8

## Task I'd like to know its hERG current change (%, negative = inhibition) at 10uM. The compound in question is Cc1ccc2c(c1)CC1(CN2C)C(=O)NC(=O)N(CCc2ccccc2)C1=O (centres unmarked)
## Result -15.2

## Task I'd like to know its hERG current change (%, negative = inhibition) at 10uM. The compound in question is CCN1CCCC1Cn1cnc2c([nH]c3cc(OC)ccc32)c1=O (centres unmarked)
## Result -63.8

## Task I'd like to know its hERG current change (%, negative = inhibition) at 10uM. The compound in question is COc1ccc(Nc2nnc(Cc3ccncc3)c3ccccc23)c(OC)c1
## Result -72.7

## Task I'd like to know its hERG current change (%, negative = inhibition) at 10uM. The compound in question is COc1ccc(Nc2ncnc3ccccc23)c(OC)c1.Cl
## Result -10.2

## Task I'd like to know its hERG current change (%, negative = inhibition) at 10uM. The compound in question is CCOc1ccc(NC(=O)COC(=O)CC2CCCCC2)cc1
## Result -6.75

## Task I'd like to know its hERG current change (%, negative = inhibition) at 10uM. The compound in question is CCN1CCCC1Cn1cnc2c([nH]c3ccc(OC)cc32)c1=O (centres unmarked)
## Result -66.1

## Task I'd like to know its hERG current change (%, negative = inhibition) at 10uM. The compound in question is O=C(O)CCc1nnc2n(Cc3ccc(F)cc3)c(=O)c3ccccc3n12
## Result 6.3

###

biological target: human ether-à-go-go-related gene (hERG) potassium channel (human, UniProt Q12809); assay: primary screen, population patch clamp on CHO cells stably expressing hERG; higher = less effect of the substance;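 further: peak tail current of the secondary pulse compared with the same well before compound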
About 14,000 (4.5%) of roughly 310,000 compounds showed an effect of 50% or more. The effect is printed as a negative number. The sample holds strong results, similar compounds and a random draw of the others, so the mix is not that of the screen.
hERG current change (%, negative = inhibition) at 10uM overview
All answers are understood in %, so give the number only.

// below: answered compounds
- compound: "CC(C)n1cc(CN2CCC(n3nccc3NC(=O)C3CCCC3)CC2)cn1"
  observed_result: -1.92
- compound: "O=C(Nc1ccnn1C1CCN(Cc2cccc(O)c2)CC1)C1CCCC1"
  observed_result: -36.5
- compound: "CNC(=O)c1cn(-c2ccc(Cl)cc2)c(=O)c2ccccc12"
  observed_result: -9.43
- compound: "CCOC(=O)C(C)NC(=O)c1cn(-c2ccc(OC)cc2)c(=O)c2ccccc12 (stereo not drawn)"
  observed_result: 5.7

Next, consider the following compound.
## Task I'd like to know its hERG current change (%, negative = inhibition) at 10uM. The compound in question is Cc1cccc(-c2nc(=S)c3c(n2Cc2ccco2)CCCC3)c1
## Result 7.14
